B1: LINE1-full (parent)
chain: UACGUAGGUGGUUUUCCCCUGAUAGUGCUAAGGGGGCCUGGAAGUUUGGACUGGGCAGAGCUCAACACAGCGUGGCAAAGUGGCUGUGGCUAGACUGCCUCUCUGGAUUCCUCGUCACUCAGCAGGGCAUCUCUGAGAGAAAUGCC

Variants of: B1
Assay: self-cleavage, relative activity (ratio to wild type); higher = more cleavage; in vitro, sequencing; the parent is a self-cleaving ribozyme
Label 1 (yes) when self-cleavage is at or above 0.7; anything below gets 0 (no).

>  <variant code>
U100C C118A

>  <discrete label>
1 (yes)

$$$$
>  <variant code>
A129G A140U

>  <discrete label>
1 (yes)

$$$$
>  <variant code>
U15C U134C

>  <discrete label>
1 (yes)

$$$$
>  <variant code>
U13C G126A

>  <discrete label>
1 (yes)

$$$$
>  <variant code>
U112C U143A

>  <discrete label>
1 (yes)

$$$$
>  <variant code>
G40A G53A

>  <discrete label>
1 (yes)

$$$$
>  <variant code>
A2G A117G

>  <discrete label>
0 (no)

$$$$
>  <variant code>
A94U U108C

>  <discrete label>
0 (no)

$$$$
>  <variant code>
U47G A67G

>  <discrete label>
0 (no)

$$$$
>  <variant code>
U115A A141U

>  <discrete label>
0 (no)

$$$$
>  <variant code>
U87A U96C

>  <discrete label>
0 (no)

$$$$
>  <variant code>
A117G A136U

>  <discrete label>
1 (yes)

$$$$

This collection of values is drawn from the RNAGym collection of RNA variant scans (doi:10.7554/elife.90254).
